system: Streptococcus pneumoniae PRC-53 (mefE efflux); assay: Antibacterial activity test (agar dilution MIC); assay type: cell-based; settings: Streptococcus pneumoniae PRC-53 (mefE efflux); agar plates, 37° C., about 20 hours
# Minimum inhibitory concentration (MIC) per entry
Field format: number, assumed µg/mL, no unit text.

{"columns": ["compound", "unitAbbreviation", "Minimum inhibitory concentration (MIC)"],
 "data": [
  ["CCC(=O)OC1C(C)OC(OC2C(C)OC(OC3C(CC=O)CC(C)C(O)C=CC=CCC(C)OC(=O)CC(OC(=O)c4ccccc4)C3OC)C(O)C2N(C)C)CC1(C)O (stereo not drawn) [Example 48, 3-Epi-3-O-benzoylleucomycin A7]", "µg/mL", 0.20],
  ["CCC(=O)OC1C(C)OC(OC2C(C)OC(OC3C(CC=O)CC(C)C(O)C=CC=CCC(C)OC(=O)CC(OC)C3OC)C(O)C2N(C)C)CC1(C)O (stereo not drawn)", "µg/mL", 0.10]
]}

# evaluate next
Streptococcus pneumoniae PRC-53 (mefE efflux) / Minimum inhibitory concentration (MIC) / CCC(=O)O[C@H]1[C@H](C)O[C@@H](O[C@H]2[C@H](N(C)C)[C@@H](O)[C@H](O[C@H]3[C@@H](CC=O)C[C@@H](C)[C@@H](O)/C=C/C=C/C[C@@H](C)OC(=O)C[C@@H](O)[C@@H]3OC)O[C@@H]2C)C[C@@]1(C)O [LM-A7, leucomycin-A7, reference compound] : value?
0.20

Cited source: patent US6660718B1
